target: AMP-activated protein kinase, AMPK (Homo sapiens) (UniProt P54646+O43741+P54619+Q9UGJ0+Q9Y478+Q13131+Q9UGI9); assay: AMP-dependent Kinase enzyme assay. An in vitro enzyme assay that detects ADP turnover that is directly proportional to AMPK activity. This uses naive AMPK that is activated during the assay with MK-8722; type: functional; set-up: scale not given: direction of the effect not stated beside the values; details: 30 µM
Endpoint: Percent Effect (%)
Kindly provide the numeric value in % only, without the unit symbol.

compound=Cc1nn(C)c2nc(NC3CCNCC3)sc12 endpoint="Percent Effect" meas_value=0.889
compound=CCCS(=O)(=O)NCc1nc(C)cc(N2CCCC2)n1 endpoint="Percent Effect" meas_value=4.77
compound=COCCOc1cccc(CNCc2ccc(-n3cncn3)nc2)c1 endpoint="Percent Effect" meas_value=3.28
compound="CCC(C)C(=O)N(C)Cc1cc(F)ccc1N1CCC(OC)CC1 (centres undefined)" endpoint="Percent Effect" meas_value=8.71

Consider O=C(CCn1ccc2ncccc2c1=O)N1CCCC1 . Its measured Percent Effect is -3.54

Value of measured Percent Effect for the entry CC(C)c1nc(CSc2nnc(C3CC3)n2CC(N)=O)no1 : -5.73

The reported Percent Effect of the compound CN1C(=O)[C@H]2CC[C@@H]1CN(C(=O)Nc1ccccc1C(F)(F)F)C2 was -0.892

response.value for Cc1cc(=O)n2nc(Oc3ccc(F)c(F)c3)sc2n1 (field: Percent Effect) = -9.97

For reference, reported Percent Effect for Cc1ncc2c(n1)CN(Cc1nc(-c3ccco3)oc1C)CC2 stands at -38.3

get_value(item= COc1ccc(Cl)cc1-n1nc(C2CCCC2)nc1Cn1cnnn1 , readout=Percent Effect) returns -6.62

Reported Percent Effect of C[C@@H]1CN(Cc2nc(C(N)=O)no2)CC[C@@]1(O)C1CC1 : 0.276

According to the records, this compound Cc1ccc(CNCc2cccc(NC(=O)CCN3CCOCC3)c2)s1 displays Percent Effect of -4.09

get_value(item= Cc1nonc1CN1CC[C@@](O)(C2CCC2)[C@H](C)C1 , readout=Percent Effect) returns -1.54

Quick note, Percent Effect for CCc1cc(=O)[nH]c(-c2ccc(NC(C)COC)nc2)n1 (centres undefined) landed at -2.5

Briefly, Percent Effect measured for Cn1cc(S(=O)(=O)NCCc2ccsc2)cn1 : 13.7

* * *

target: AMP-activated protein kinase, AMPK (Homo sapiens) (UniProt P54646+O43741+P54619+Q9UGJ0+Q9Y478+Q13131+Q9UGI9); assay: AMP-dependent Kinase enzyme assay. An in vitro enzyme assay that detects ADP turnover that is directly proportional to AMPK activity. This uses naive AMPK that is activated during the assay with MK-8722; format: functional; design: scale not given: direction of the effect not stated beside the values; conditions: 30 µM
Endpoint: Percent Effect (%)
The response must be a number in % with no trailing unit.

compound="Cc1ccccc1C(CC(=O)N1CCc2sccc2C1)NC(N)=O (stereo unspecified)" unit_abbreviation=% meas_value=11.7

Now look at this one.
CC(=O)N1CCN(CCNC(=O)NC(C)Cn2ccnc2)CC1 (stereo unspecified) has a reported Percent Effect of -2.62

* * *

Each record here notes measured Percent Effect.
Biological target: Tyrosyl-tRNA synthetase, putative (Trypanosoma cruzi (strain CL Brener))
Sequence (whole entry): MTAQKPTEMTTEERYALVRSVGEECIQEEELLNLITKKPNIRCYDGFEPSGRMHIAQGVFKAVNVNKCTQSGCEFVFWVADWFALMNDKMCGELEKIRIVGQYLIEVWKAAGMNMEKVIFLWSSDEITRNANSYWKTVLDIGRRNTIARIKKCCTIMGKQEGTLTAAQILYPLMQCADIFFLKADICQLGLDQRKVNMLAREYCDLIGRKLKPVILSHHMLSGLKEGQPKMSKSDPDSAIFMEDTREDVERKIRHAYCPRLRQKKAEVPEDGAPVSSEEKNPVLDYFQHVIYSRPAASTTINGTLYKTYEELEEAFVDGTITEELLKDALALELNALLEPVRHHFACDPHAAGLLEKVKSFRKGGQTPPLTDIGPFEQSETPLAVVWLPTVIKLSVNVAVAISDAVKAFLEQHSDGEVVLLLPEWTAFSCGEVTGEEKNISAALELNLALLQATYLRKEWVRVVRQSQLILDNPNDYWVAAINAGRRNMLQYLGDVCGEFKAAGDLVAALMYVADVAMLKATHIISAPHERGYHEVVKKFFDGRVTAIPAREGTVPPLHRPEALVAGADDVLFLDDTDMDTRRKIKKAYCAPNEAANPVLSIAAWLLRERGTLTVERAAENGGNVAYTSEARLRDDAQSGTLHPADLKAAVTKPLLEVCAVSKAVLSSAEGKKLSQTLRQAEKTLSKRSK
Test: Trypanosoma cruzi tyrosyl tRNA synthetase (TcYRS) SOP
Type: functional
Set-up: scale not given: direction of the effect not stated beside the values
Settings: 30 µM
Use % as the unit, but write only the number.

Please review the following examples before continuing.
compound="Cc1nn(C)c(N(C)C)c1CNC(C)COc1cccc(F)c1 (stereo unspecified)" endpoint="Percent Effect" unit_abbreviation=% meas_value=-4.71
compound=Cc1occc1C(=O)N1CC[C@@H](N2CCOCC2)[C@@H]1Cc1ccccc1 endpoint="Percent Effect" unit_abbreviation=% meas_value=15.4
compound="O=C(c1cnco1)N1CCCC(Cc2nccs2)C1 (stereo unspecified)" endpoint="Percent Effect" unit_abbreviation=% meas_value=15
compound="CC(C)c1nc(C2CCCN2Cc2ccn(C)c(=O)c2)no1 (stereo unspecified)" endpoint="Percent Effect" unit_abbreviation=% meas_value=18.1
compound=O=C(NCCO)c1ccn(-c2ccc3ccccn23)n1 endpoint="Percent Effect" unit_abbreviation=% meas_value=-2.56

GET /values?item= Cc1cccc(-c2noc(CN3CCCC3Cn3cccn3)n2)c1 (stereo unspecified) &system= Tyrosyl-tRNA synthetase, putative (Trypanosoma cruzi (strain CL Brener)) returns Percent Effect: 2.56
